Numbers sourced from patent US7101878B1.

assay name: Intact male rat, testosterone suppression
Assay type: in vivo
conditions used: male, Sprague-Dawley, rat, plasma, intramuscular; 100 mg/kg im*, 7 days; read-out: Range of Plasma Conc.
endpoint name: concentration at 7 days
The reply should read as a number followed by its unit.

INPUT: Quick one: concentration at 7 days of `COc1cc(OC)c(NC(=O)c2ccc(Cc3cc4c(cc3C)C(C)(C)CCC4(C)C)o2)c(OC)c1` ?
OUTPUT: 1300 nM

---

assay name: Pharmacokinetic studies / bioavailability in rats
Assay type: in vivo, rat
conditions used: male, rat, plasma, po, 20 mg/kg, castrated male rats; p.o. 20 mg/kg; 10 mg/ml solution in 10% DMSO 10% cremophor 80% saline
endpoint name: Cmax (nM)
Your answer should be a plain number; it is taken to be in nM.

INPUT: Quick one: Cmax of COc1cc(OC)c(NC(=O)c2ccc(Cc3cc4c(cc3C)C(C)(C)CCC4(C)C)o2)c(OC)c1 [Compound 134] ?
OUTPUT: 1980

---

Task for the reader: assign each of the following compounds its reported pIC50.
tested target: human GnRH receptor (Homo sapiens, UniProt P30968)
Construct: expressed in transfected cells; host or cells: HEK 293 (hGnRH-R/293, from Dr. Stuart Sealfon)
Sequence (P30968 whole entry): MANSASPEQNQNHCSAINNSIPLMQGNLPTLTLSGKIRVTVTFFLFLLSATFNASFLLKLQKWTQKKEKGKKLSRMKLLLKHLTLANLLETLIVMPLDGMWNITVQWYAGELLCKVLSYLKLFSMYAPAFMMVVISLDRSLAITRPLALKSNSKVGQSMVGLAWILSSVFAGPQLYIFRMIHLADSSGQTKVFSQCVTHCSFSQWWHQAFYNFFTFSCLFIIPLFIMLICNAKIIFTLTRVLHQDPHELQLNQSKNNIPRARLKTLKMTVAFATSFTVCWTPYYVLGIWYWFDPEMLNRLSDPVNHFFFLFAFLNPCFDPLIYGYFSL
assay name: Radioligand binding, 125I-GnRH-A displacement, membranes of HEK 293 cells with human GnRH receptor
conditions used: read-out: hGnRH IC50
Convention used: pIC50 is expressed as -log10 of the molar concentration.

INPUT: Quick one: pIC50 of `COc1ccc(OC)c(NC(=O)c2ccc(Cc3cc4c(cc3C)C(C)(C)CCC4(C)C)o2)c1` ?
OUTPUT: 7.10

INPUT: Continue with `CCC(C)(C)c1ccc(OC)c(Cc2ccc(C(=O)Nc3c(OC)cc(OC)cc3OC)o2)c1`
OUTPUT: 7.72

INPUT: Continue with `CCOC(=O)CN(Cc1ccccn1)C(=O)c1ccc(Cc2cc3c(cc2C)C(C)(C)CCC3(C)C)o1`
OUTPUT: 5.36

INPUT: Continue with Cc1cc2c(cc1Cc1ccc(C(=O)NCC3CCN(c4nccc(NCC5CCCO5)n4)CC3)o1)C(C)(C)CCC2(C)C (stereo not drawn)
OUTPUT: 6.66

INPUT: Continue with `COc1cccc(OC)c1NC(=O)c1ccc(Cc2cc3c(cc2C)C(C)(C)CCC3(C)C)o1`
OUTPUT: 8.10

INPUT: Continue with `Cc1cc2c(cc1Cc1ccc(C(=O)NCc3ccc(CNC(=N)N)cc3)o1)C(C)(C)CCC2(C)C`
OUTPUT: 6.39

INPUT: Continue with `Cc1cc(C)c2ccc(NC(=O)c3ccc(Cc4cc5c(cc4C)C(C)(C)CCC5(C)C)o3)nc2n1`
OUTPUT: 5.37

INPUT: Continue with `Cc1cc2c(cc1Cc1ccc(C(=O)Nc3cccc4ncccc34)o1)C(C)(C)CCC2(C)C`
OUTPUT: 6.90

INPUT: Continue with `Cc1cc2c(cc1Cc1ccc(C(=O)NCc3ccc(F)cc3)o1)C(C)(C)CCC2(C)C`
OUTPUT: 5.52

INPUT: Continue with `Cc1cc(NCc2cccc(CNC(=O)c3ccc(Cc4cc5c(cc4C)C(C)(C)CCC5(C)C)o3)c2)nc(N)n1`
OUTPUT: 6.64

INPUT: Continue with Cc1cc2c(cc1Cc1ccc(C(=O)NCc3cccc(CNc4nccc(NCC5CCCO5)n4)c3)o1)C(C)(C)CCC2(C)C (stereo not drawn)
OUTPUT: 7.30

INPUT: Continue with Cc1cc2c(cc1Cc1ccc(C(=O)NCCNc3nccc(NCC4CCCO4)n3)o1)C(C)(C)CCC2(C)C (stereo not drawn)
OUTPUT: 5.60

INPUT: Continue with `Cc1ncc(CNC(=O)c2ccc(Cc3cc4c(cc3C)C(C)(C)CCC4(C)C)o2)c(N)n1`
OUTPUT: 5.71

INPUT: Continue with `Cc1cc2c(cc1Cc1ccc(C(=O)NCc3cccc(CNc4ncnc5[nH]ccc45)c3)o1)C(C)(C)CCC2(C)C`
OUTPUT: 6.46

INPUT: Continue with `COC(=O)c1cc(C)nc(NCc2cccc(CNC(=O)c3ccc(Cc4cc5c(cc4C)C(C)(C)CCC5(C)C)o3)c2)n1`
OUTPUT: 5.96

INPUT: Continue with `Cc1cccc(CNC(=O)c2ccc(Cc3cc4c(cc3C)C(C)(C)CCC4(C)C)o2)c1`
OUTPUT: 6.85

INPUT: Continue with Cc1cc2c(cc1Cc1ccc(C(=O)N3CCC(Nc4nccc(NCC5CCCO5)n4)CC3)o1)C(C)(C)CCC2(C)C (stereo not drawn)
OUTPUT: 5.52

INPUT: Continue with `Cc1cc2c(cc1Cc1ccc(C(=O)NCc3cccc(Cl)c3)o1)C(C)(C)CCC2(C)C`
OUTPUT: 6.72

INPUT: Continue with Cc1cc2c(cc1Cc1ccc(C(=O)NCC3CCC(CNCc4c(C)noc4C)CC3)o1)C(C)(C)CCC2(C)C (stereo not drawn)
OUTPUT: 6.25

INPUT: Continue with `Cc1cnc(CNC(=O)c2ccc(Cc3ccc4c(c3)C(C)(C)CCC4(C)C)o2)cn1`
OUTPUT: 5.38

INPUT: Continue with `COc1cccc(OC)c1NC(=O)c1ccc(Cc2c(C)c(C)c(C)c(C)c2C)o1`
OUTPUT: 5.90

INPUT: Continue with `Cc1cc2c(cc1Cc1ccc(C(=O)N3CCN(c4ncccn4)CC3)o1)C(C)(C)CCC2(C)C`
OUTPUT: 5.30

INPUT: Continue with Cc1cc2c(cc1Cc1ccc(C(=O)NCC3CCC(CNc4ncccn4)CC3)o1)C(C)(C)CCC2(C)C (stereo not drawn)
OUTPUT: 6.20

INPUT: Continue with `Cc1cc2c(cc1Cc1ccc(C(=O)NCCSCCCc3ccc(CN(C)C)o3)o1)C(C)(C)CCC2(C)C`
OUTPUT: 6.15

INPUT: Continue with `COc1ccc(OC)c(OC)c1Cc1ccc(C(=O)Nc2c(OC)cccc2OC)o1`
OUTPUT: 5.88

INPUT: Continue with `CCC(C)(C)c1ccc(OC)c(Cc2ccc(C(=O)Nc3c(OC)cccc3OC)o2)c1`
OUTPUT: 8.30

INPUT: Continue with Cc1cc2c(cc1Cc1ccc(C(=O)NCC3CCC(CN)CC3)o1)C(C)(C)CCC2(C)C (stereo not drawn)
OUTPUT: 6.94

INPUT: Continue with `COc1cccc(OC)c1NC(=O)c1ccc(Cc2cc(C(C)C)c(O)cc2C)o1`
OUTPUT: 6.49

INPUT: Continue with `Cc1cc2c(cc1Cc1ccc(C(=O)Nc3ccc(N4CCOCC4)cc3)o1)C(C)(C)CCC2(C)C`
OUTPUT: 5.87

INPUT: Continue with Cc1cc2c(cc1Cc1ccc(C(=O)NCC3CCC(CNc4ncc(C#N)c(N)n4)CC3)o1)C(C)(C)CCC2(C)C (stereo not drawn)
OUTPUT: 6.50
